Measured Ab IC50-Cyno PBMC (Trial 1), TNFα release induced by cyno PGLYRP1/PGN of individual entries
# target_entity: T1, cyno TREM-1 (cynomolgus monkey, UniProt A0A2K5VHG8 21-233)
# T1 sequence: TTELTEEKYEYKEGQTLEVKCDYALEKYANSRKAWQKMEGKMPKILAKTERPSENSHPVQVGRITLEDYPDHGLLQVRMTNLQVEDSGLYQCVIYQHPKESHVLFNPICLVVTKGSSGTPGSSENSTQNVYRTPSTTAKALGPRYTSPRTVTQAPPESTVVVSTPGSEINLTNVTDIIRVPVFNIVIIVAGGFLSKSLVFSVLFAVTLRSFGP
# run_description: cell-based or functional assay
measured_metric: Ab IC50-Cyno PBMC (Trial 1), TNFα release induced by cyno PGLYRP1/PGN (nM)

binder: 49A2 (antibody, V domains shown, also called 19333) VH: EVQLVESGGGLVQPGGSLRLSCAASGFTFSSNWMSWVRQAPGKGLDWMASMKQDGSEIYYVDSVKGRFTISRDNAKNSLHLQMNSLRAEDTAVYYCVRGGWRFESWGQGALVTVSS VL: EIVMTQSPATLSVSPGERATLSCRASQSVSSNLAWYQQKSGQAPRLLIYGASIRATGIPARVSGSGSGTEFTFTISSLQSEDFAVYYCQQYKNWPLTLGGGTKVEIK
experimental_value: 0.732
--
binder: 44A5 (antibody, V domains shown) VH: EVQLLESGGGLVQPGGSLRLSCAASGFTFSTYAMNWVRQAPGKGLEWVSTVSGSGRPTYYADSVKGRFTISRDNSKNTLYLQMNSLRAEDTAVYYCAKAYYSNYLFDYWGQGTLVTVSS VL: EIVMTQSPAILSVSPGERATLSCRASQSVSSNLAWYQQKPGQAPRLLIYGASTRATGVPARFSGGGSGTDFTLTISSLQSEDFAVYYCQHCKTWPPLTFGGGTKVDLK
experimental_value: 0.0579
--
binder: 50A12 (antibody, V domains shown) VH: EVQLVESGGGLVQPGGSLRLSCAASGFTFSSYWMSWVRQAPGKGLEWVANIKQDGSEEYYVDSVKGRFTISRDNAKNSLFLQMNSLRAEDTAVYYCARDYGDSFDYWGQGTLVTVSS VL: DIQMTQSPSSVSASVGDRVTITCRASQGIRKWLAWYQQKPGRAPKLLIYAASRLQSGVPSRFSGSGSGTDFTLTISSLRPEDFATYYCLQAHGFPWTFGQGTKVEIK
experimental_value: 2

Recorded values, source patent US20260274913A1.
